Target: T1, human IL-1RAcP on 293T/17-FR cells (human, UniProt Q9NPH3 21-570)
T1 sequence (looked up): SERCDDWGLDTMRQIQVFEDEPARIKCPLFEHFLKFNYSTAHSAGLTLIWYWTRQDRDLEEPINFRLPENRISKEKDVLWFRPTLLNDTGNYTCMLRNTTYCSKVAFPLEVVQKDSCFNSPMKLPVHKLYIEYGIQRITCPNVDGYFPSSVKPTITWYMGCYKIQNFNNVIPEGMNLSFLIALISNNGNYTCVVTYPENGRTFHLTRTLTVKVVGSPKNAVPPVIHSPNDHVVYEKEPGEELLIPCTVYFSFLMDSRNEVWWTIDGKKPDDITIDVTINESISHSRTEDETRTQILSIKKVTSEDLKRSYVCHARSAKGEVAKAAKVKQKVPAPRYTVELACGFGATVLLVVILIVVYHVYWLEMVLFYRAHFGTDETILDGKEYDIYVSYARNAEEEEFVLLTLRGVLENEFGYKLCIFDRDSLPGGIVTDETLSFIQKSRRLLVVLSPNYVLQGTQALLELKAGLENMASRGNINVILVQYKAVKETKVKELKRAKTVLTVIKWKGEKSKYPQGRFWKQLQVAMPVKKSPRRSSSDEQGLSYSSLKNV
Assay: cell-based or functional assay
Measurement Kind: functional reporter gene assay (% inhibition), 0.04 µg/mL mAb (%)

{"columns": ["Binder", "Unit Abbreviation", "Reported"],
 "data": [
  ["P013.S.02.B.F04 (antibody, V domains shown, rabbit monoclonal antibody; also called P013.A.00109.B02) VH: QEQLVESGGDLVKPEGSLTLTCTASGFSFSSNYWICWVRQAPGKGLEWIACIYTSTDTTYYPNWAKGRFTISKTSSTTVTLQMTSLTAADTATYFCARDLLVVTSFNLWGQGTLVTVSS VL: ALVMTQTPSPVSAAVGGTVTINCQASEDIYSNLAWFQQKPGQPPKLLIYGASTLASGVPSRFSGSGSGTEFTLTISGVQSDDAATYYCLGVCTDISADDLYNTFGGGTEVVVK", "%", 21],
  ["P013.S.01.B.C03 (antibody, V domains shown, rabbit monoclonal antibody; also called P013.A.00133.D11) VH: QSVEESGGRLVTPGTPLTLTCTVSGIDLSNYAMSWVRQAPGKGLEWIGSVISGGSTYYATWARGRFTISKSSTTVDLKMTSLTTEDTATYFCARGCPGYNGDKYTFDLWGPGTLVTVSS VL: AFEMTQTPSSVSEPVGGTVTIKCQASQSIYNYLSWYQQKPGQRPKLLIYRASTLASGVPSRFKGSGSGTEFTLTISGVESADAATYYCQQGATSYDIENPFGGGTEVVVK", "%", 54],
  ["P013.S.02.B.E01 (antibody, V domains shown, rabbit monoclonal antibody; also called P013.A.00013.G07) VH: QSLEESGGRLVTPGTPLTLTCTVSGFSLSIYGMGWVRQAPGEGLEWIGSISSGGSTYYATWAKGRFTISKTSSTTLDLKITSPTTEDTATYFCVRSDGYTNGDYDTYFNLWGQGTLVTVS VL: DIVMTQTPASVSEPVGGTVTIRCQASQSISSWLSWYQQKPGQPPKLLIYQASALASGVSSRFIGSGYGTEFTLTISGVQSEDAATYYCQCTYGIGSNSDYGVAFGGGTEVVVK", "%", -6]
]}
